Reference source for all entries: paper PMC4483627

# TARGET OF ASSAY: rat nAChR α3β2 (Rattus norvegicus, UniProt P04757+P12390)
# Construct: expressed in transfected cells; host or cells: Xenopus oocytes injected with cRNA
# Sequence (P04757 26-499 limits assumed): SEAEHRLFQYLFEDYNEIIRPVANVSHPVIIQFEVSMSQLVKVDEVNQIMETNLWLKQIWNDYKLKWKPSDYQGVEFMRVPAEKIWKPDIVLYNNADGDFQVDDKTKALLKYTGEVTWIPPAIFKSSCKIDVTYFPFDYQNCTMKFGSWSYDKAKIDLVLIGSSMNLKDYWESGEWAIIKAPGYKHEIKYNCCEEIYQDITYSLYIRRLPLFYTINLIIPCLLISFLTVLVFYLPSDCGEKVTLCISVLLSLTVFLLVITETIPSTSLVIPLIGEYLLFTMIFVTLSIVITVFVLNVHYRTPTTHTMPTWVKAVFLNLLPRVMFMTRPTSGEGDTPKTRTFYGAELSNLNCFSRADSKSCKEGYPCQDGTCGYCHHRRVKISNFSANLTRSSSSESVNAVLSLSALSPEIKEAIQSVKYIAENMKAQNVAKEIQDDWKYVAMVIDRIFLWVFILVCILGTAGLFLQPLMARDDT
# Sequence (P12390 25-500 limits assumed): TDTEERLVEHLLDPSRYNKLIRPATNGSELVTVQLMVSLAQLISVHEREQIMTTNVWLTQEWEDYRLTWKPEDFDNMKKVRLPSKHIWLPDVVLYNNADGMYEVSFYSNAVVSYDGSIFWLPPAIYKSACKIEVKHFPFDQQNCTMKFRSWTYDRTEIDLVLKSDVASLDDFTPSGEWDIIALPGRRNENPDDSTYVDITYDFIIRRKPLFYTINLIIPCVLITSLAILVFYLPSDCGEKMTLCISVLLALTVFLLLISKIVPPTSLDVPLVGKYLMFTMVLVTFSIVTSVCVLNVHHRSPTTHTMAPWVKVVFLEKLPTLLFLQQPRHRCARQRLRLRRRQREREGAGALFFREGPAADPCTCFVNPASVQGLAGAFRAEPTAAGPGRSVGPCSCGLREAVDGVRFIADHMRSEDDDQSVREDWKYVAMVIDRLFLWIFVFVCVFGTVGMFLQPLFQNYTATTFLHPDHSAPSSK
# ASSAY SUMMARY: cell-based
# Format: cell-based
pIC50: −log10 of the molar value. Positions of bridges follow the written chain, without caps; N, C: chain ends. Residues, ends and D or L forms follow the SMILES beside them.
Entries and their measured pIC50 follow.

COMPOUND: CC(C)C[C@@H]1NC(=O)[C@H](CCC(=O)O)NC(=O)[C@@H]2CCCN2C(=O)[C@H](Cc2c[nH]cn2)NC(=O)[C@H](CC(N)=O)NC(=O)CNC(=O)[C@H](Cc2c[nH]cn2)NC(=O)[C@@H]2CSSC[C@H](NC(=O)[C@H](CCC(=O)O)NC(=O)[C@@H]3CCCN3)C(=O)N[C@@H](CSSC[C@@H](C(N)=O)NC1=O)C(=O)N[C@@H]([C@@H](C)O)C(=O)N[C@@H](Cc1c[nH]cn1)C(=O)N1CCC[C@H]1C(=O)N[C@@H](C)C(=O)N2 [Mr1.7[V11G,S12N]] (H-PECCTHPACHGNHPELC-NH2; disulfide 3-9, 4-17)
MEASUREMENT QUALIFIER: =
pIC50: 7.55

COMPOUND: CC(C)C[C@@H]1NC(=O)[C@H](CCC(=O)O)NC(=O)[C@@H]2CCCN2C(=O)[C@H](C)NC(=O)[C@H](CO)NC(=O)[C@H](C(C)C)NC(=O)[C@H](Cc2c[nH]cn2)NC(=O)[C@@H]2CSSC[C@H](NC(=O)[C@H](CCC(=O)O)NC(=O)[C@@H]3CCCN3)C(=O)N[C@@H](CSSC[C@@H](C(N)=O)NC1=O)C(=O)N[C@@H]([C@@H](C)O)C(=O)N[C@@H](Cc1c[nH]cn1)C(=O)N1CCC[C@H]1C(=O)N[C@@H](C)C(=O)N2 [Mr1.7[H13A]] (H-PECCTHPACHVSAPELC-NH2; disulfide 3-9, 4-17; N-terminus assumed)
MEASUREMENT QUALIFIER: <
pIC50: 5.00

COMPOUND: CC(C)C[C@@H]1NC(=O)[C@H](CCC(=O)O)NC(=O)[C@@H]2CCCN2C(=O)[C@H](Cc2c[nH]cn2)NC(=O)[C@H](CO)NC(=O)CNC(=O)[C@H](Cc2c[nH]cn2)NC(=O)[C@@H]2CSSC[C@H](NC(=O)[C@H](CCC(=O)O)NC(=O)[C@@H]3CCCN3)C(=O)N[C@@H](CSSC[C@@H](C(N)=O)NC1=O)C(=O)N[C@@H]([C@@H](C)O)C(=O)N[C@@H](Cc1c[nH]cn1)C(=O)N1CCC[C@H]1C(=O)N[C@@H](C)C(=O)N2 [Mr1.7[V11G]] (H-PECCTHPACHGSHPELC-NH2; disulfide 3-9, 4-17)
MEASUREMENT QUALIFIER: =
pIC50: 6.86

###

# TARGET OF ASSAY: rat nAChR α9α10 (Rattus norvegicus, UniProt P43144+Q9JLB5)
# Sequence (P43144 26-479 limits assumed): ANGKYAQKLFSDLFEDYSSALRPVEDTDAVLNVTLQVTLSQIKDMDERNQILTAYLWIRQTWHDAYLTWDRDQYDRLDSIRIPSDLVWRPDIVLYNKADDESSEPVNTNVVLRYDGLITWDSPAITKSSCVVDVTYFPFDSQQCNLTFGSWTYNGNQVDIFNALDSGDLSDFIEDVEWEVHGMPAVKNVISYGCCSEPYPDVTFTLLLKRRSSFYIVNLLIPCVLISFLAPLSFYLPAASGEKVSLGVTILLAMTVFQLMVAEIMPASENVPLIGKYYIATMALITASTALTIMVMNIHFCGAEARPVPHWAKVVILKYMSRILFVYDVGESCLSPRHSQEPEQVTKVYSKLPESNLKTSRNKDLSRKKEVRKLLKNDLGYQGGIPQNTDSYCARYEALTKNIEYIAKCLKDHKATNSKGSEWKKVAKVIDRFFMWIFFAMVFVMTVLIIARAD
# Sequence (Q9JLB5 25-447 limits assumed): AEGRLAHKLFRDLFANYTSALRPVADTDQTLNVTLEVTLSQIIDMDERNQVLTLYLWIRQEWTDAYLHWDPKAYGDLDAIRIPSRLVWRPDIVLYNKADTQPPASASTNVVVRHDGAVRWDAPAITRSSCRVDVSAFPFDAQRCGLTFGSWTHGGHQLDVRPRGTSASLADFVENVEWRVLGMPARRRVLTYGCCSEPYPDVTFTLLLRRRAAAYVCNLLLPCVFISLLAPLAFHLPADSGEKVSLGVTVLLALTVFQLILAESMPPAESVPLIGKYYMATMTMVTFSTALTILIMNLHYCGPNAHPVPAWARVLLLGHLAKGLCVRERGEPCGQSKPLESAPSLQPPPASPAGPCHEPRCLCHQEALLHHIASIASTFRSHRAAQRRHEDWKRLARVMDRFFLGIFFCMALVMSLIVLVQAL
# ASSAY SUMMARY: cell-based
pIC50: −log10 of the molar value. Positions of bridges follow the written chain, without caps; N, C: chain ends. Residues, ends and D or L forms follow the SMILES beside them.

COMPOUND: CC(C)C[C@@H]1NC(=O)[C@H](CCC(=O)O)NC(=O)[C@@H]2CCCN2C(=O)[C@H](Cc2c[nH]cn2)NC(=O)[C@H](CC(N)=O)NC(=O)[C@H](C(C)C)NC(=O)[C@H](Cc2c[nH]cn2)NC(=O)[C@@H]2CSSC[C@H](NC(=O)[C@H](CCC(=O)O)NC(=O)[C@@H]3CCCN3)C(=O)N[C@@H](CSSC[C@@H](C(N)=O)NC1=O)C(=O)N[C@@H]([C@@H](C)O)C(=O)N[C@@H](Cc1c[nH]cn1)C(=O)N1CCC[C@H]1C(=O)N[C@@H](C)C(=O)N2 [Mr1.7[S12N]] (H-PECCTHPACHVNHPELC-NH2; disulfide 3-9, 4-17)
pIC50: < 5.00
--
COMPOUND: CC(C)C[C@@H]1NC(=O)[C@H](CCC(=O)O)NC(=O)[C@@H]2CCCN2C(=O)[C@H](Cc2c[nH]cn2)NC(=O)[C@H](CO)NC(=O)[C@H](C(C)C)NC(=O)[C@H](Cc2c[nH]cn2)NC(=O)[C@@H]2CSSC[C@H](NC(=O)[C@H](C)NC(=O)[C@@H]3CCCN3)C(=O)N[C@@H](CSSC[C@@H](C(N)=O)NC1=O)C(=O)N[C@@H]([C@@H](C)O)C(=O)N[C@@H](Cc1c[nH]cn1)C(=O)N1CCC[C@H]1C(=O)N[C@@H](C)C(=O)N2 [Mr1.7[E2A]] (H-PACCTHPACHVSHPELC-NH2; disulfide 3-9, 4-17)
pIC50: < 5.00
--
COMPOUND: CC(C)C[C@@H]1NC(=O)[C@H](CCC(=O)O)NC(=O)[C@@H]2CCCN2C(=O)[C@H](Cc2c[nH]cn2)NC(=O)[C@H](CC(N)=O)NC(=O)[C@H](C(C)C)NC(=O)[C@H](Cc2c[nH]cn2)NC(=O)[C@@H]2CSSC[C@H](NC(=O)[C@H](C)NC(=O)[C@@H]3CCCN3)C(=O)N[C@@H](CSSC[C@@H](C(N)=O)NC1=O)C(=O)N[C@@H]([C@@H](C)O)C(=O)N[C@@H](Cc1c[nH]cn1)C(=O)N1CCC[C@H]1C(=O)N[C@@H](C)C(=O)N2 [Mr1.7[E2A,S12N]] (H-PACCTHPACHVNHPELC-NH2; disulfide 3-9, 4-17)
pIC50: < 5.00

###

# TARGET OF ASSAY: rat nAChR α7 (Rattus norvegicus)
# Sequence (Q05941 23-502 limits assumed): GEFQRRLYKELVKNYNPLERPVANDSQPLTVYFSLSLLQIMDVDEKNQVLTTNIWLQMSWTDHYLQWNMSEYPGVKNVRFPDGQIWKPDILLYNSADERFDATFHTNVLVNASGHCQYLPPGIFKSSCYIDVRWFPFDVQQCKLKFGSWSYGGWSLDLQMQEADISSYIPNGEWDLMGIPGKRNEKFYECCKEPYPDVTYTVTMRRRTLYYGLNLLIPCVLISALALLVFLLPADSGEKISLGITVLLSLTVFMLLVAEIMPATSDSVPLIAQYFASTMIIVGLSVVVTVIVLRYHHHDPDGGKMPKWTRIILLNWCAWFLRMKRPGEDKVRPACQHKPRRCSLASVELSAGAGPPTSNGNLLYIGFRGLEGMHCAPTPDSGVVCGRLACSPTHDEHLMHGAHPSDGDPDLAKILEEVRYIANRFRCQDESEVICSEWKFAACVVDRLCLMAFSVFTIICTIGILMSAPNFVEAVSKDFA
Positions of bridges follow the written chain, without caps; N, C: chain ends. Residues, ends and D or L forms follow the SMILES beside them.

MOLECULE: CC(C)C[C@@H]1NC(=O)[C@H](CCC(=O)O)NC(=O)[C@@H]2CCCN2C(=O)[C@H](Cc2c[nH]cn2)NC(=O)[C@H](CO)NC(=O)[C@H](C(C)C)NC(=O)[C@H](Cc2c[nH]cn2)NC(=O)[C@@H]2CSSC[C@H](NC(=O)[C@H](C)NC(=O)[C@@H]3CCCN3)C(=O)N[C@@H](CSSC[C@@H](C(N)=O)NC1=O)C(=O)N[C@@H]([C@@H](C)O)C(=O)N[C@@H](Cc1c[nH]cn1)C(=O)N1CCC[C@H]1C(=O)N[C@@H](C)C(=O)N2 [Mr1.7[E2A]] (H-PACCTHPACHVSHPELC-NH2; disulfide 3-9, 4-17)
TARGET OF ASSAY: rat nAChR α7 (Rattus norvegicus)
MEASUREMENT QUALIFIER: >
IC50 [nM]: 10000

MOLECULE: CC(C)C[C@@H]1NC(=O)[C@H](CCC(=O)O)NC(=O)[C@@H]2CCCN2C(=O)[C@H](Cc2c[nH]cn2)NC(=O)[C@H](CC(N)=O)NC(=O)[C@H](C(C)C)NC(=O)[C@H](Cc2c[nH]cn2)NC(=O)[C@@H]2CSSC[C@H](NC(=O)[C@H](CCC(=O)O)NC(=O)[C@@H]3CCCN3)C(=O)N[C@@H](CSSC[C@@H](C(N)=O)NC1=O)C(=O)N[C@@H]([C@@H](C)O)C(=O)N[C@@H](Cc1c[nH]cn1)C(=O)N1CCC[C@H]1C(=O)N[C@@H](C)C(=O)N2 [Mr1.7[S12N]] (H-PECCTHPACHVNHPELC-NH2; disulfide 3-9, 4-17)
TARGET OF ASSAY: rat nAChR α7 (Rattus norvegicus)
MEASUREMENT QUALIFIER: =
IC50 [nM]: 220

MOLECULE: CC(C)C[C@@H]1NC(=O)[C@H](CCC(=O)O)NC(=O)[C@@H]2CCCN2C(=O)[C@H](Cc2c[nH]cn2)NC(=O)[C@H](CC(N)=O)NC(=O)[C@H](C(C)C)NC(=O)[C@H](Cc2c[nH]cn2)NC(=O)[C@@H]2CSSC[C@H](NC(=O)[C@H](C)NC(=O)[C@@H]3CCCN3)C(=O)N[C@@H](CSSC[C@@H](C(N)=O)NC1=O)C(=O)N[C@@H]([C@@H](C)O)C(=O)N[C@@H](Cc1c[nH]cn1)C(=O)N1CCC[C@H]1C(=O)N[C@@H](C)C(=O)N2 [Mr1.7[E2A,S12N]] (H-PACCTHPACHVNHPELC-NH2; disulfide 3-9, 4-17)
TARGET OF ASSAY: rat nAChR α7 (Rattus norvegicus)
MEASUREMENT QUALIFIER: =
IC50 [nM]: 591

###

Entries and their measured kon follow.
# TARGET OF ASSAY: rat nAChR α3β2 (Rattus norvegicus, UniProt P04757+P12390)
# Construct: expressed in transfected cells; host or cells: Xenopus oocytes injected with cRNA
# ASSAY SUMMARY: cell-based
# Type: cell-based
Positions of bridges follow the written chain, without caps; N, C: chain ends. Residues, ends and D or L forms follow the SMILES beside them.

COMPOUND: CC(C)C[C@@H]1NC(=O)[C@H](CCC(=O)O)NC(=O)[C@@H]2CCCN2C(=O)[C@H](Cc2c[nH]cn2)NC(=O)[C@H](CC(N)=O)NC(=O)CNC(=O)[C@H](Cc2c[nH]cn2)NC(=O)[C@@H]2CSSC[C@H](NC(=O)CN)C(=O)N[C@@H](CSSC[C@@H](C(N)=O)NC1=O)C(=O)N[C@@H]([C@@H](C)O)C(=O)N[C@@H](Cc1c[nH]cn1)C(=O)N1CCC[C@H]1C(=O)N[C@@H](C)C(=O)N2 [Mr1.7[E2G,V11G,S12N,Δ1]] (H-GCCTHPACHGNHPELC-NH2; disulfide 2-8, 3-16; N-terminus assumed)
kon: 208000 M⁻¹ s⁻¹
--
COMPOUND: CC(C)C[C@@H]1NC(=O)[C@H](CCC(=O)O)NC(=O)[C@@H]2CCCN2C(=O)[C@H](Cc2c[nH]cn2)NC(=O)[C@H](CC(N)=O)NC(=O)[C@H](C(C)C)NC(=O)[C@H](Cc2c[nH]cn2)NC(=O)[C@@H]2CSSC[C@H](NC(=O)[C@H](CCC(=O)O)NC(=O)[C@@H]3CCCN3)C(=O)N[C@@H](CSSC[C@@H](C(N)=O)NC1=O)C(=O)N[C@@H]([C@@H](C)O)C(=O)N[C@@H](Cc1c[nH]cn1)C(=O)N1CCC[C@H]1C(=O)N[C@@H](C)C(=O)N2 [Mr1.7[S12N]] (H-PECCTHPACHVNHPELC-NH2; disulfide 3-9, 4-17)
kon: 130000 M⁻¹ s⁻¹
--
COMPOUND: CC(C)C[C@@H]1NC(=O)[C@H](CCC(=O)O)NC(=O)[C@@H]2CCCN2C(=O)[C@H](Cc2c[nH]cn2)NC(=O)[C@H](CO)NC(=O)[C@H](C(C)C)NC(=O)[C@H](Cc2c[nH]cn2)NC(=O)[C@@H]2CSSC[C@H](NC(=O)[C@H](C)NC(=O)[C@@H]3CCCN3)C(=O)N[C@@H](CSSC[C@@H](C(N)=O)NC1=O)C(=O)N[C@@H]([C@@H](C)O)C(=O)N[C@@H](Cc1c[nH]cn1)C(=O)N1CCC[C@H]1C(=O)N[C@@H](C)C(=O)N2 [Mr1.7[E2A]] (H-PACCTHPACHVSHPELC-NH2; disulfide 3-9, 4-17)
kon: 86300 M⁻¹ s⁻¹
--
COMPOUND: CC(C)C[C@@H]1NC(=O)[C@H](CCC(=O)O)NC(=O)[C@@H]2CCCN2C(=O)[C@H](Cc2c[nH]cn2)NC(=O)[C@H](CC(N)=O)NC(=O)[C@H](C(C)C)NC(=O)[C@H](Cc2c[nH]cn2)NC(=O)[C@@H]2CSSC[C@H](NC(=O)[C@H](C)NC(=O)[C@@H]3CCCN3)C(=O)N[C@@H](CSSC[C@@H](C(N)=O)NC1=O)C(=O)N[C@@H]([C@@H](C)O)C(=O)N[C@@H](Cc1c[nH]cn1)C(=O)N1CCC[C@H]1C(=O)N[C@@H](C)C(=O)N2 [Mr1.7[E2A,S12N]] (H-PACCTHPACHVNHPELC-NH2; disulfide 3-9, 4-17)
kon: 73800 M⁻¹ s⁻¹
